The measured values listed here are drawn from patent US20230210831A1.

Kindly supply the reported Number of revertant colonies TA1537 values for the records listed here.
Tested on: Salmonella typhimurium TA1537
assay.name: Ames test (reverse mutation test), TA1537
Format: cell-based
recorded.conditions: S9 Mix -; dose 2.3 µg/plate
One number for each entry.

These solved cases illustrate the format of a correct answer.
molecule	quantitative.result
Cc1ccc(-n2nc(N)cc2-c2cccc(OCC(F)(F)F)c2)cc1 [Metabolite F]	9
Nc1cc(-c2cccc(OCC(F)(F)F)c2)n(-c2ccc(F)cc2)n1 [Metabolite E]	17

For every item below, please supply its Number of revertant colonies TA1537.
1. CC(C)(OCc1cc(F)cc(-c2cc(N)nn2-c2ccc(F)cc2)c1)C(F)(F)F [Metabolite D]
2. Nc1cc(-c2cccc(OC(F)(F)F)c2)n(-c2cccc(F)c2)n1 [Metabolite G]

[11, 15]

Using the record for Cc1cccc(-n2nc(N)cc2-c2cccc(OC(F)(F)F)c2)c1 [Metabolite H] , state its measured Number of revertant colonies TA1537.
9

----------
Tested on: Salmonella typhimurium TA98
assay.name: Ames test (reverse mutation test), TA98
Type: cell-based
recorded.conditions: S9 Mix -; dose 6.9 µg/plate
Hi there, I'd appreciate the recorded Number of revertant colonies TA98 for every entry that follows.
Answers are plain numbers.

molecule	system.tested	Number of revertant colonies TA98
Nc1cc(-c2cccc(OC(F)(F)F)c2)n(-c2cccc(F)c2)n1 [Metabolite G]	Salmonella typhimurium TA98	30

For every listed record, write down its Number of revertant colonies TA98.
1. Cc1ccc(-n2nc(N)cc2-c2cccc(OCC(F)(F)F)c2)cc1 [Metabolite F]
2. Nc1cc(-c2cccc(OCC(F)(F)F)c2)n(-c2ccc(F)cc2)n1 [Metabolite E]
3. Cc1cccc(-n2nc(N)cc2-c2cccc(OC(F)(F)F)c2)c1 [Metabolite H]
4. CC(C)(OCc1cc(F)cc(-c2cc(N)nn2-c2ccc(F)cc2)c1)C(F)(F)F [Metabolite D]

32
27
23
22

----------
Test system: Escherichia coli WP2uvrA
assay.name: Ames test (reverse mutation test), WP2uvrA
Format: cell-based
recorded.conditions: S9 Mix -; dose 6.9 µg/plate
Provide the reported Number of revertant colonies WP2uvrA of each item.
Answers are plain numbers.

Answered cases to consult:
compound	system.tested	Number of revertant colonies WP2uvrA
Nc1cc(-c2cccc(OC(F)(F)F)c2)n(-c2cccc(F)c2)n1 [Metabolite G]	Escherichia coli WP2uvrA	23
CC(C)(OCc1cc(F)cc(-c2cc(N)nn2-c2ccc(F)cc2)c1)C(F)(F)F [Metabolite D]	Escherichia coli WP2uvrA	27
Cc1cccc(-n2nc(N)cc2-c2cccc(OC(F)(F)F)c2)c1 [Metabolite H]	Escherichia coli WP2uvrA	18

Value sought for every listed compound: Number of revertant colonies WP2uvrA.
1. Nc1cc(-c2cccc(OCC(F)(F)F)c2)n(-c2ccc(F)cc2)n1 [Metabolite E]
2. Cc1ccc(-n2nc(N)cc2-c2cccc(OCC(F)(F)F)c2)cc1 [Metabolite F]

1. 26
2. 23

----------
Tested on: Salmonella typhimurium TA98
assay.name: Ames test (reverse mutation test), TA98
Type: cell-based
recorded.conditions: S9 Mix +; dose 62 µg/plate
measure: Number of revertant colonies TA98
One number for each entry.

Recorded Number of revertant colonies TA98, per entry:
molecule	Number of revertant colonies TA98
Cc1cccc(-n2nc(N)cc2-c2cccc(OC(F)(F)F)c2)c1 [Metabolite H]	194
Nc1cc(-c2cccc(OCC(F)(F)F)c2)n(-c2ccc(F)cc2)n1 [Metabolite E]	490
Nc1cc(-c2cccc(OC(F)(F)F)c2)n(-c2cccc(F)c2)n1 [Metabolite G]	75

# ---- query molecule ----
// fetch Number of revertant colonies TA98 given entry Cc1ccc(-n2nc(N)cc2-c2cccc(OCC(F)(F)F)c2)cc1 [Metabolite F]
484
